Sourced from patent US11986790B2

# RUN DESCRIPTION: Water solubility of acrylic monomers
# Type: physicochemical
# CONDITION NOTES: 25 °C, Table 1, room temperature of 25° C.
MEASURED PARAMETER: solubility

Lookup: Returns the measured solubility for the input molecule. Input: C=C(C)C(=O)OCCOCCOCCOCCOC(=O)C(=C)C [Tetraethylene glycol Dimethacrylate]
Found: 52 to 53 mg/mL

---

# RUN DESCRIPTION: Water solubility of acrylic monomers
# Format: physicochemical
# CONDITION NOTES: 25 °C, stated in the example text for the monomer used
# Excerpt: Specific examples of such acrylic monomers may include one or more selected from the group consisting of dipropyleneglycol diacrylate, diethyleneglycol diacrylate, and tetraethyleneglycol dimethacrylate, as shown in the following Table 1.
MEASURED PARAMETER: solubility
# do not omit the unit; it follows the number

Lookup: Returns the measured solubility for the input molecule. Input: C=C(C)C(=O)OCCOCCOCCOCCOC(=O)C(=C)C [Tetraethylene glycol Dimethacrylate]
Found: 52 mg/mL
